measured_on: serotonin transporter (Rattus norvegicus, UniProt P31652)
Construct: displace ^3H-paroxetine from male rat cortical membranes; from tissue; host or cells: male rat cortical membranes
Sequence (P31652 whole entry): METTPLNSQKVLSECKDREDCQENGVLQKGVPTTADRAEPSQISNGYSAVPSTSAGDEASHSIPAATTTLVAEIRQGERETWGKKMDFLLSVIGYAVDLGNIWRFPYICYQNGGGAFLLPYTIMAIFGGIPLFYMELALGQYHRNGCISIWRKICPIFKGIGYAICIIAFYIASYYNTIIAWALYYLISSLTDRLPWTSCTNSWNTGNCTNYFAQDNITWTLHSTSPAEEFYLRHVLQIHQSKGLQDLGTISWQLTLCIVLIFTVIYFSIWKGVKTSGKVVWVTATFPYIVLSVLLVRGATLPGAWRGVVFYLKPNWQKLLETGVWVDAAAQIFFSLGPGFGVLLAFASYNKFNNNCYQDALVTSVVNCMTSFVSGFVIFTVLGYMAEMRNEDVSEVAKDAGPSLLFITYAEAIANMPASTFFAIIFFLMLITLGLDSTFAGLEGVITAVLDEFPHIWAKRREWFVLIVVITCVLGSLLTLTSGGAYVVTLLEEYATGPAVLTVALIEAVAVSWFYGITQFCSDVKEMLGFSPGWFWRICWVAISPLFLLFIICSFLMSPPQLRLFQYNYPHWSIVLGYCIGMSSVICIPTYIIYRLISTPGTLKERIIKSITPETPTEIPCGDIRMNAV
assay: 5-HT transporter affinity: displacement of 3H-paroxetine from male rat cortical membranes
Assay type: binding
stated_conditions: displacement of 3H-paroxetine; male rat cortical membranes; read-out: 5-HT Transporter Affinity Ki

compound	measured_on	Ki
NC(=O)c1ccc(F)c2c1CC(N(CCCCn1ccc3c(F)cccc31)C1CCC1)CO2 (stereo not shown) [Compound 204]	serotonin transporter (Rattus norvegicus, UniProt P31652)	0.288 µM
NC(=O)c1ccc(Cl)c2c1CC(N(CCCc1c[nH]c3ccc(F)cc13)C1CCC1)CO2 (stereo not shown) [Compound 7]	serotonin transporter (Rattus norvegicus, UniProt P31652)	0.0032 µM
COC(=O)c1ccc(F)c2c1CC(NCCCCc1c[nH]c3ccc(F)cc13)CO2 (stereo not shown) [Compound 57]	serotonin transporter (Rattus norvegicus, UniProt P31652)	0.00469 µM
COC(=O)c1cccc2c1CC(NCCCc1c[nH]c3c(F)cc(F)cc13)CO2 (stereo not shown) [Compound 135]	serotonin transporter (Rattus norvegicus, UniProt P31652)	0.058 µM
NC(=O)c1ccc(F)c2c1C[C@@H](N(CCCc1c[nH]c3c(F)cc(F)cc13)CC1CC1)CO2 [Compound 147]	serotonin transporter (Rattus norvegicus, UniProt P31652)	0.0107 µM
CCN(CC1CCc2[nH]c3ccc(F)cc3c2C1)[C@H]1COc2c(F)ccc(C(N)=O)c2C1 (single isomer, unassigned; (+)) [Compound 176b]	serotonin transporter (Rattus norvegicus, UniProt P31652)	0.165 µM
NC(=O)c1ccc(F)c2c1CC(NCCc1c[nH]c3ccc(F)cc13)CO2 (stereo not shown) [Compound 75]	serotonin transporter (Rattus norvegicus, UniProt P31652)	1.03 µM
CCN(CCCc1c[nH]c2ccc(F)cc12)C1COc2cccc(OC)c2C1 (stereo not shown) [Compound 31]	serotonin transporter (Rattus norvegicus, UniProt P31652)	0.0022 µM
CCN(CCCc1c[nH]c2c(OC)cccc12)C1COc2c(F)ccc(C(N)=O)c2C1 (stereo not shown) [Compound 101]	serotonin transporter (Rattus norvegicus, UniProt P31652)	0.642 µM
NC(=O)c1ccc(F)c2c1CC(NCCCc1c[nH]c3c(Cl)cccc13)CO2 (stereo not shown) [Compound 109]	serotonin transporter (Rattus norvegicus, UniProt P31652)	0.069 µM
O=C(NC1CCC1)c1ccc(F)c2c1CC(N(CCCc1c[nH]c3ccc(F)cc13)C1CCC1)CO2 (stereo not shown) [Compound 65]	serotonin transporter (Rattus norvegicus, UniProt P31652)	0.00398 µM
CCCN(C(C)CCc1c[nH]c2ccc(C#N)cc12)C1COc2c(F)ccc(C(N)=O)c2C1 (single isomer, unassigned) [Compound 13b]	serotonin transporter (Rattus norvegicus, UniProt P31652)	0.037 µM
CCN(CCCc1c[nH]c2c(F)cc(F)cc12)C1COc2c(C(N)=O)ccc(F)c2C1 (stereo not shown) [Compound 132]	serotonin transporter (Rattus norvegicus, UniProt P31652)	0.0503 µM
CCCN(CCCc1c[nH]c2ccc(F)cc12)[C@@H]1CCc2cccc(OC)c2C1 [Compound 47b]	serotonin transporter (Rattus norvegicus, UniProt P31652)	0.0011 µM
COc1cccc2c(CCCN(C3CCC3)C3COc4c(F)ccc(C(N)=O)c4C3)coc12 (stereo not shown) [Compound 164]	serotonin transporter (Rattus norvegicus, UniProt P31652)	0.428 µM
O=C(NC1CCC1)c1cccc2c1CC(N(CCCc1c[nH]c3c(F)cc(F)cc13)C1CCC1)CO2 (stereo not shown) [Compound 143]	serotonin transporter (Rattus norvegicus, UniProt P31652)	0.0044 µM

----------
Reported pKi values follow for various compounds
measured_on: 5-HT1A receptor (Homo sapiens)
Sequence (P08908 1-422): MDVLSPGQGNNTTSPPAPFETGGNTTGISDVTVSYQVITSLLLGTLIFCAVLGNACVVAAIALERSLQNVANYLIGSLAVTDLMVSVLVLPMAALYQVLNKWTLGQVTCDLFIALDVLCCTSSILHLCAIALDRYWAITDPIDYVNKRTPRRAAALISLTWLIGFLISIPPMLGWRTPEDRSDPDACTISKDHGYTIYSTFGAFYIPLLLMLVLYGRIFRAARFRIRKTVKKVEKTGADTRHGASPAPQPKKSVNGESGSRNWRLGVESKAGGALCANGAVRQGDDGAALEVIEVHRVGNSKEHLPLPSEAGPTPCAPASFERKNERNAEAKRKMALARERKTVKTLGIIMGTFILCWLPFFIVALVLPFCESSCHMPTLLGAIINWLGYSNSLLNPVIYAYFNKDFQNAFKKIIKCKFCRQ
assay: 5-HT1A receptor affinity: displacement of [3H] 8-OH-DPAT
Type: binding
Design: expressed in transfected cells
stated_conditions: displacement of [3H] 8-OH-DPAT; CHO cells stably transfected with human 5-HT1A receptors; read-out: 5-HT1A Receptor Affinity Ki
pKi: −log10 of the molar value.

compound	pKi
COc1ccc2[nH]cc(CCCN(CC3CC3)C3COc4c(F)ccc(C(N)=O)c4C3)c2c1 (stereo not shown)	8.93
NC(=O)c1ccc(F)c2c1CC(N(CCCc1c[nH]c3cc(F)ccc13)CC1CC1)CO2 (stereo not shown) [Compound 52a]	8.63
NC(=O)c1ccc(F)c2c1CC(N(CCCCn1ccc3cc(F)ccc31)C1CCC1)CO2 (stereo not shown)	7.97
COC(=O)c1cccc2c1CC(NCCCc1c[nH]c3c(F)cc(F)cc13)CO2 (stereo not shown)	7.70

----------
measured_on: cloned human 5-HT1A receptors (Homo sapiens, UniProt P08908)
Construct: expressed in transfected cells
assay: 35S-GTPγS binding assay, 5-HT1A function
Assay type: biochemical
stated_conditions: antagonist potency, reversal of 8-OH-DPAT; read-out: 5-HT1A Function GTPγS IC50
Attribute: IC50

compound	IC50 (nM)
NC(=O)c1ccc(F)c2c1CC(N(CCCc1c[nH]c3c(Cl)cccc13)C1CCC1)CO2 (stereo not shown)	1600
NC(=O)c1ccc(F)c2c1CC(N(CCCc1c[nH]c3ccc(Cl)cc13)C1CCC1)CO2 (stereo not shown)	735
NC(=O)c1ccc(F)c2c1CC(N(CCCc1c[nH]c3ccc(Cl)cc13)CC1CC1)CO2 (stereo not shown)	134
CC(CCc1c[nH]c2c(F)cc(F)cc12)N(CC1CC1)C1COc2c(F)ccc(C(N)=O)c2C1 (single isomer, unassigned) [Compound 154a]	235

----------
measured_on: 5-HT1A receptor (Homo sapiens, UniProt P08908)
assay: 5-HT1A receptor affinity: displacement of [3H] 8-OH-DPAT
Assay type: binding
Set-up: expressed in transfected cells
stated_conditions: displacement of [3H] 8-OH-DPAT; CHO cells stably transfected with human 5-HT1A receptors; read-out: 5-HT1A Receptor Affinity Ki
pKi: −log10 of the molar value.
In this section we review reported pKi values for a set of compounds.

compound	pKi
CCCN(CCCCn1ccc2c(F)cccc21)C1COc2c(F)ccc(C(N)=O)c2C1 (stereo not shown)	7.85
NC(=O)c1ccc(F)c2c1CC(NCCCc1c[nH]c3ccc(Cl)cc13)CO2 (stereo not shown)	7.01
CCCN(CCCc1c[nH]c2c(OC)cccc12)C1COc2c(F)ccc(C(N)=O)c2C1 (stereo not shown)	8.41
NC(=O)c1ccc(F)c2c1C[C@@H](NCC1CCc3[nH]c4ccc(F)cc4c3C1)CO2 (single isomer, unassigned; (-)) [Compound 175a]	7.42
CCN(C(C)CCc1c[nH]c2ccc(F)cc12)C1COc2c(F)ccc(C(N)=O)c2C1 (single isomer, unassigned; (+)) [Compound 16b]	6.89
NC(=O)c1ccc(F)c2c1CC(N(CCCCn1ccc3cccc(F)c31)CC1CC1)CO2 (stereo not shown)	7.72
COc1cccc2c(CCCCNC3COc4c(F)ccc(C(N)=O)c4C3)coc12 (stereo not shown)	7.51
COC(=O)c1cccc2c1CC(N(CCCc1c[nH]c3c(F)cc(F)cc13)C1CCC1)CO2 (stereo not shown)	7.56
NC(=O)c1ccc(F)c2c1CC(N(CCCc1c[nH]c3ccc(Cl)cc13)C1CCC1)CO2 (stereo not shown)	8.40
CCCN(CCCCc1coc2c(OC)cccc12)C1COc2c(F)ccc(C(N)=O)c2C1 (stereo not shown)	8.83
N#Cc1ccc2[nH]cc(CCCN(C3CCC3)[C@@H]3COc4c(F)ccc(C(N)=O)c4C3)c2c1 [Compound 97a]	6.59
CCCN(CCCc1c[nH]c2ccc(F)cc12)[C@H]1CCc2cccc(OC)c2C1 [Compound 47a]	8.81
CCCN(CCCc1c[nH]c2ccc(F)cc12)[C@@H]1CCc2cccc(OC)c2C1 [Compound 47b]	9.47
COC(=O)c1ccc(F)c2c1CC(N(CCCc1c[nH]c3ccc(F)cc13)C1CCC1)CO2 (stereo not shown) [Compound 55]	7.13
COc1cccc2c(CCCN(CC3CC3)C3COc4c(F)ccc(C(N)=O)c4C3)c[nH]c12 (stereo not shown)	8.45
NC(=O)c1ccc(F)c2c1CC(N(CCCc1c[nH]c3c(Cl)cccc13)C1CCC1)CO2 (stereo not shown)	7.58
